Source of measurements: patent US20220332816A1

study.target: T1, TIGIT on the engineered cell lines of the TIGIT/CD155 Blockade Bioassay (J2201, Promega) (UniProt Q495A1 22-244, limits assumed)
T1 sequence (looked up): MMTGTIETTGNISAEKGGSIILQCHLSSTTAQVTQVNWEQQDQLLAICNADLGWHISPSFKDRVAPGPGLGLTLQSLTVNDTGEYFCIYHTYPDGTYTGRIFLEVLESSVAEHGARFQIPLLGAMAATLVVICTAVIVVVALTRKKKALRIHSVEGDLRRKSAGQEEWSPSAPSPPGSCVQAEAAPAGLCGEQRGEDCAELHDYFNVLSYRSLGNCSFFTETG
test.summary: cell-based or functional assay
outcome.measure: Blockade EC50

binder	endpoint.result
SCT-Ga433 (antibody, V domains shown, Murine variable domains) VH: DVKLVESGGGLVKPGGSLKLSCSASGFTFSSYTMSWVRQTPEKRLEWVATISSGGSYTYYPDSVKGRFTISRDNAKNTLYLQMSSLKSEDTAMFYCTRWLLSLYAMDYWGQGTSVTVSS VL: DIQMNQSPSSLSASLGDTITITCHASQNINVWLSWYQQKPGNISKLLIYKASNFHTGVPSRFSGSGSGTNFTLTISSLQPEDIATYYCQQGQTYPFTFGGGTKLEIK	25.2 nM
SCT-Ga333 (antibody, V domains shown, Murine variable domains) VH: QVQLQQSGAELVRPGTSVKVSCKASGYAFTNYLIEWVKQRPGQGLEWIGVINPGSGGNNYNEKFKGKATLTADKSSSTAYMQLSSLTSDDSAVYFCARRGDKYGSAWFAYWGQGTLVTVSA VL: DIVMTQSHKFMSTSVGDRVSITCKASQDVSTAVAWYQQKPGQSPKLLIYSASYRYTGVPDRFTGSGSGTDFTFTISSVQAEDLAVYYCQQHYSSPRTFGGGTKLEIK	42.2 nM
SCT-Ga001 (antibody, V domains shown, Murine variable domains) VH: QVQLQQSGAELVRPGTSVKVSCKASGYAFTNYLIEWVKQRPGQGLEWIGVINPGSGGSKYNEKFKGKTTLTADKSSSTAYMQLSSLTSEDSAVYFCARTGVYGNFLIFDYWGQGTTLTVSS VL: DIVLTQSPSSLSVAAGEKVTLSCKSSQSLLNSGIQKNYLAWYQQKPGQPPKLLIYGASTRESGVPDRFTGSGSGTDFTLTISSVQAEDLAVYYCQNDHRYPFTFGGGTKLEIK	26.6 nM
SCT-Ga255 (antibody, V domains shown, Murine variable domains) VH: EVKLVESGGGLVKPGGSLKLSCAASGFAFSSFDMSWVRQTPEKRLEWVAVISSGGSYTFYPDSVKGRFTISRDNARNTLYLQMSSLRSEDTALYFCTRQDYRYPYIMDYWGQGTSVTVSS VL: DIQMNQSPSSLSASLGDTITITCHASQNINVWLSWYQQKPGNIPKLLIYKASNLHTGVPSRFSGSGSGAGFTLTISSLQPEDIATYYCQQGQSYPWTFGGGTKLEIK	33.4 nM
